Experimental system: TLR9 (Homo sapiens, UniProt Q9NR96)
Construct: lymphocytes, monocytes and dendritic cells that express TLR7, TLR8 and TLR9; endogenous in cells; host or cells: human PBMCs from healthy donors
Sequence (Q9NR96 26-1032): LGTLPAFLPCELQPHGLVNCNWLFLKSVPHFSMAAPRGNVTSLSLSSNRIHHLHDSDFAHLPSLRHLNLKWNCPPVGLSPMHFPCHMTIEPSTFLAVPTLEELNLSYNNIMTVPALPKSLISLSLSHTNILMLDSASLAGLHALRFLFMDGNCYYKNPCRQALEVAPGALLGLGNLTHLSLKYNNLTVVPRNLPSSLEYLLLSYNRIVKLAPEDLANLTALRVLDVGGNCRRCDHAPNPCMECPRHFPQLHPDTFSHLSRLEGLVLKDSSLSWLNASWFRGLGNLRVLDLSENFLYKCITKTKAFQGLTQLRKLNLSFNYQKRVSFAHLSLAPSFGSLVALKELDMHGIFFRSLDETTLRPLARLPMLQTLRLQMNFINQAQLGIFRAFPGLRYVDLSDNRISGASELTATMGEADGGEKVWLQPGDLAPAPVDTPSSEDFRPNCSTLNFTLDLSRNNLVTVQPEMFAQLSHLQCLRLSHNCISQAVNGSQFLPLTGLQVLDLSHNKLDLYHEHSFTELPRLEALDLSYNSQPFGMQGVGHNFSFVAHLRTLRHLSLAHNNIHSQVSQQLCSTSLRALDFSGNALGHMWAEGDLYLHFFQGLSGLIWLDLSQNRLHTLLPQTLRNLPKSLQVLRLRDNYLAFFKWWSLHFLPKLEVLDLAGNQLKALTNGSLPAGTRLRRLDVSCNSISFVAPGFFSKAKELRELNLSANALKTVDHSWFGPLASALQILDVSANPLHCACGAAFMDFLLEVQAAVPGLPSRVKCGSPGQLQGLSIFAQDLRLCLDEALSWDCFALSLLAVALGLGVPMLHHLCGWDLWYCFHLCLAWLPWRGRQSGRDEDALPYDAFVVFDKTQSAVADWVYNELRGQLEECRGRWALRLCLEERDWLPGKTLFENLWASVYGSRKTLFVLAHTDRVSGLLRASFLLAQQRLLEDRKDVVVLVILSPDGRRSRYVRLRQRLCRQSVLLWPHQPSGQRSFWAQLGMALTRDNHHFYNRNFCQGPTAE
Method summary: Human PBMC cell-based assay, TLR9 agonist ODN-2216 stimulation, cytokine (IL-6 and IFNα) readout
Experimental context: human PBMCs; Table 27 comparison; read-out: TLR-9 EC50
pEC50: −log10 of the molar value.
Reported endpoint: pEC50

Note to self: pEC50 recorded for Cc1cc(-c2[nH]c3ccc(-c4ccc(N5CCC(C)(N)CC5)nc4)cc3c2C(C)C)cc(C)n1 [Example D, reference compound] was 6.60

P: Cc1cc(-c2[nH]c3ccc(-c4ccnc(N5CCNCC5)c4)cc3c2C(C)C)cc(C)n1 [Example B, reference compound]
Q: Cc1cc(-c2[nH]c3ccc(C4CCCNC4)cc3c2C(C)C)cc(C)n1 (stereo not drawn) [Example C, reference compound]
Input: Name the one with the greater pEC50 value, either P or Q as given. Output the label that corresponds to your choice.
Output: P
